- Tested on: CP217
- EXPERIMENT DESCRIPTION: qHTS profiling for inhibitors of Plasmodium falciparum proliferation (AID 504749); further: nearly all actives have a fitted effect of over 60% in size
- EXPERIMENTAL PARAMETERS: P. falciparum in erythrocytes, SYBR Green DNA, 72 h; series mostly up to 28.7 µM
Inconclusive results are not listed. Calls of active or inactive are those of the source. The call rests on the fitted dose curve; in most records, active means well fitted inhibition curve with a large enough effect; inconclusive means small, poorly fitted or top-dose-only effect; inactive means flat fitted curve, though single readings scatter.
Assign a class; possible classes are active, inactive

Use the examples below as a reference point.
> print(dat)
                                   compound     group
1  OC1C(O)C(O)C(O)C(O)C1O (stereo unspecified)  inactive
2     C[N+]1(C)CCC(=C(c2ccccc2)c2ccccc2)CC1  inactive
3  O=C(Nc1cccc(C2=NCCN2)c1)Nc1cccc(C2=NCCN2)c1    active
4  O[C@@H](c1cc(C(F)(F)F)nc2c(C(F)(F)F)cccc12)[C@H]1CCCCN1    active
5  Cc1cc(C)cc(OCC2CNC(=O)O2)c1 (stereo unspecified)  inactive

Consider the record given below.
Exam item: Fill in: this test's call for `CCOC(=O)C(C#N)=C(c1ccccc1)c1ccccc1` is ___
Marked response: inactive

###

- EXPERIMENT DESCRIPTION: qHTS assay for measurement of the activity of small molecule inhibitors on Zika virus induced Caspase-3 activity in human iPSC derived neural progenitor cells (hNPCs) (AID 1224857); further: nearly all actives have a fitted effect of over 65% in size
- EXPERIMENTAL PARAMETERS: hNPCs ZIKV-induced caspase-3/7, Caspase-Glo luminescence, 6 h; series mostly up to 45.7 µM
Results filed as inconclusive are left out. Activity calls are given as the source filed them. The call rests on the fitted dose curve; in most records, active means well fitted inhibition curve with a large enough effect; inconclusive means small, poorly fitted or top-dose-only effect; inactive means no such curve, though single readings can be large or run the other way.
Assign a class; possible classes are true = active, false = inactive

Use the examples below as a reference point.
> print(dat)
                                   molecule  group
1           CC(C)Cn1cnc2c1c(=O)n(C)c(=O)n2C  false
2                       NC(N)=NCc1cccc(I)c1  false
3                        CC(=O)NCCCCCC(=O)O  false
4  CCN1CCN(C(=O)N[C@@H](C(=O)N[C@@H]2C(=O)N3C(C(=O)O)=C(CSc4nnnn4C)CS[C@H]23)c2ccc(O)cc2)C(=O)C1=O  false

Exam item: Fill in: this test's call for `C/C=C/C=N/NC(=O)c1ccncc1` is ___
Marked response: false

Exam item: Fill in: this test's call for `C#C[C@]1(O)CC[C@H]2[C@@H]3[C@H](C)CC4=C(CCC(=O)C4)[C@H]3CC[C@@]21C` is ___
Marked response: false

Exam item: Fill in: this test's call for `NC(N)=NN=C(/C=C/c1ccc([N+](=O)[O-])o1)/C=C/c1ccc([N+](=O)[O-])o1` is ___
Marked response: true

Exam item: Fill in: this test's call for `CCCCCCCCCCCCSCCOCCO` is ___
Marked response: false

Exam item: Fill in: this test's call for `CCCCCCCCCCC[C@@H](C[C@@H]1OC(=O)[C@H]1CCCCCC)OC(=O)[C@H](CC(C)C)NC=O` is ___
Marked response: false

Exam item: Fill in: this test's call for `O[C@@H](c1cc(C(F)(F)F)nc2c(C(F)(F)F)cccc12)[C@H]1CCCCN1` is ___
Marked response: false
